target of assay: CDK9/CycT1 (Homo sapiens)
Construct: Recombinant full-length His-tagged human CDK9 and CycT1; purchased Life Technologies PV4131; host or cells: insect cells
test: CDK9/CycT1 high ATP kinase assay (TR-FRET, 2 mM ATP)
Format: biochemical
condition summary: 2 mM ATP (high ATP); median; read-out: CDK9/CyclinT1, 2 mM ATP (high ATP), IC50 (median)
pIC50: −log10 of the molar value.
Exercise: state measured pIC50 for each of the compounds provided.

{"columns": ["query smiles", "pIC50"],
 "data": [
  ["C[C@H]1CN(c2nc(NCc3nc4ccccc4[nH]3)n3ncc(Br)c3n2)CCN1", "< 4.70"],
  ["Fc1cccc(-c2nnc(CNc3nc(N4C[C@H]5C[C@@H]4CO5)nc4c(Br)cnn34)[nH]2)c1", 5.91],
  ["Fc1cccc2[nH]c(CNc3nc(N4C[C@@H]5C[C@H]4CO5)nc4c(C5CC5)cnn34)nc12", "< 4.70"]
]}

Moving on to the next compound.
Incoming: Need pIC50 of OCCNc1nc(NCc2nc3ccccc3[nH]2)n2ncc(Br)c2n1 , thanks.
Outgoing: < 4.70

----------
Please provide measured IC50 for the entries that follow.
target of assay: CDK9/CycT1 (Homo sapiens, UniProt P50750)
Construct: Recombinant full-length His-tagged human CDK9 and CycT1; purchased Life Technologies PV4131; host or cells: insect cells
Sequence (P50750 whole entry): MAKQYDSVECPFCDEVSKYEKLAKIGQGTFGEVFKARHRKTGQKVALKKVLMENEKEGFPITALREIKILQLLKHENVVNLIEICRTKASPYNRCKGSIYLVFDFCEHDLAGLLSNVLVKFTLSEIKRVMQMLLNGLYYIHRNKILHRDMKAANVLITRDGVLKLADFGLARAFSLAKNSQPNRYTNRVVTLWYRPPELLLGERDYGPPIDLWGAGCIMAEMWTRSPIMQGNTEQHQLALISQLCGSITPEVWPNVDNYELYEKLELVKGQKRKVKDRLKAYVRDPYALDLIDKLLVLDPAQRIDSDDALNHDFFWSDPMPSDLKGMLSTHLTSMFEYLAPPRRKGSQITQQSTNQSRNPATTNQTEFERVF
Sequence (O60563 whole entry partner): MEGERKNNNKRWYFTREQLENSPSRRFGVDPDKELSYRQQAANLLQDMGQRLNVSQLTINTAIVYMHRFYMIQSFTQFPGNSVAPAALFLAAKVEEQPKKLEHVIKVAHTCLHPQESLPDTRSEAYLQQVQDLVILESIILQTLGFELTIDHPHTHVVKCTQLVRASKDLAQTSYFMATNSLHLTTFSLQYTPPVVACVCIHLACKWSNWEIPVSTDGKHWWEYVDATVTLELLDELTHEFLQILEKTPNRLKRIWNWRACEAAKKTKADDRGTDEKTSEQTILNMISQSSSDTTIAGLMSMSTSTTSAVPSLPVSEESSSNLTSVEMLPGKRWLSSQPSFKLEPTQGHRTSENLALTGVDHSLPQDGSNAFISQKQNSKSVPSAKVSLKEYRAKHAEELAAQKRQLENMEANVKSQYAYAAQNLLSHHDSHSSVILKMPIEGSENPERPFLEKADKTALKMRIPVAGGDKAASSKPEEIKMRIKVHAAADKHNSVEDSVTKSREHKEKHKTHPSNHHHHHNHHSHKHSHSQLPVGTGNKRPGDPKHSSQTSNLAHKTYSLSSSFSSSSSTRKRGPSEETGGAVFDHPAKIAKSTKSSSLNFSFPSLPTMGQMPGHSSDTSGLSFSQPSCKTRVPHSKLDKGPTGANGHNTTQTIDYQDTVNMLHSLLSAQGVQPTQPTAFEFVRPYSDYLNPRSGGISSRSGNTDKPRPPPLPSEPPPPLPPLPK
test: CDK9/CycT1 high ATP kinase assay (TR-FRET, 2 mM ATP)
Assay type: biochemical
condition summary: 2 mM ATP (high ATP); median; read-out: CDK9/CyclinT1, 2 mM ATP (high ATP), IC50 (median)

Known results for molecules:
{"columns": ["query smiles", "target of assay", "result type", "recorded value"],
 "data": [
  ["CN1CCN(c2nc(NCc3nc4c(F)c(F)ccc4[nH]3)n3ncc(-c4nccs4)c3n2)CC1", "CDK9/CycT1 (Homo sapiens, UniProt P50750)", "IC50", "> 20 µM"],
  ["CC1(C)CN(c2nc(NCc3nc4ccccc4[nH]3)n3ncc(Br)c3n2)CCO1", "CDK9/CycT1 (Homo sapiens, UniProt P50750)", "IC50", "> 20 µM"],
  ["CC1(C)CN(c2nc(NCc3nc4ccccc4[nH]3)n3ncc(C4CC4)c3n2)CCO1", "CDK9/CycT1 (Homo sapiens, UniProt P50750)", "IC50", "> 20 µM"],
  ["Cc1ccc2[nH]c(CNc3nc(N4CCOCC4)nc4c(Br)cnn34)nc2c1", "CDK9/CycT1 (Homo sapiens, UniProt P50750)", "IC50", "> 20 µM"],
  ["OC[C@@H]1CCCCN1c1nc(NCc2nc3ccccc3[nH]2)n2ncc(Br)c2n1", "CDK9/CycT1 (Homo sapiens, UniProt P50750)", "IC50", "10.7 µM"],
  ["FC(F)n1cc(-c2cnn3c(NCc4nc5cc(Cl)c(Cl)cc5[nH]4)nc(N4CCOCC4)nc23)cn1", "CDK9/CycT1 (Homo sapiens, UniProt P50750)", "IC50", "> 20 µM"]
]}

Would you be so kind as to report IC50 for each listed record?
1. FC(F)(F)Oc1ccccc1-c1cnc(CNc2nc(N3CCOCC3)nc3c(Br)cnn23)[nH]1
2. Fc1cccc(-c2nnc(CNc3nc(N4CCNCC4)nc4c(Br)cnn34)[nH]2)c1
3. CC1(N)CCN(c2nc(NCc3nc4ccccc4[nH]3)n3ncc(Br)c3n2)CC1
4. COc1cccc2[nH]c(CNc3nc(N4C[C@@H](C)N[C@@H](C)C4)nc4c(C5CC5)cnn34)nc12
5. C[C@H]1CCCCN1c1nc(NCc2nc3ccccc3[nH]2)n2ncc(Br)c2n1
6. Fc1cccc2[nH]c(CNc3nc(N4C[C@H]5CC[C@@H](C4)N5)nc4c(C5CC5)cnn34)nc12

Outgoing:
1. > 20 µM
2. 1.99 µM
3. > 20 µM
4. > 20 µM
5. 12.9 µM
6. > 20 µM

Please supply IC50 for each of the following items, keeping them in order.
1. Fc1ccc2[nH]c(CNc3nc(N4CCNCC4)nc4c(C5CC5)cnn34)nc2c1F
2. CN(C)[C@@H]1CCN(c2nc(NCc3nc4ccccc4[nH]3)n3ncc(Br)c3n2)C1
3. Fc1ccccc1-c1cnc(CNc2nc(N3CCOCC3)nc3c(Br)cnn23)[nH]1
4. C[C@@H]1CN(c2nc(NCc3nc4ccccc4[nH]3)n3ncc(Br)c3n2)CCN1C

Outgoing:
["> 20 µM", "> 20 µM", "5.27 µM", "> 20 µM"]

----------
I'd be grateful if you could share measured pIC50 for these entries.
target of assay: CDK9/CycT1 (Homo sapiens, UniProt P50750)
Construct: Recombinant full-length His-tagged human CDK9 and CycT1; purchased Life Technologies PV4131; host or cells: insect cells
test: CDK9/CycT1 high ATP kinase assay (TR-FRET, 2 mM ATP)
Assay type: biochemical
condition summary: 2 mM ATP (high ATP); median; read-out: CDK9/CyclinT1, 2 mM ATP (high ATP), IC50 (median)
pIC50: −log10 of the molar value.

Examples from the recorded data:
{"columns": ["compound", "recorded value"],
 "data": [
  ["Fc1c(Cl)ccc2[nH]c(CNc3nc(N4CCOCC4)nc4c(Br)cnn34)nc12 [Example 372]", 5.41],
  ["Brc1cnn2c(NCc3nc4ccccc4[nH]3)nc(N3CCC4(CCCN4)C3)nc12 (centres unmarked) [Example 215]", "< 4.70"],
  ["Fc1cccc2[nH]c(CNc3nc(N4CCOCC4)nc4c(Br)cnn34)nc12 [Example 97]", 4.87],
  ["Fc1cccc2[nH]c(CNc3nc(N4CCNCC4)nc4c(C5CC5)cnn34)nc12 [Example 182]", "< 4.70"],
  ["Fc1c(Cl)ccc2[nH]c(CNc3nc(N4CCOCC4)nc4c(C5CC5)cnn34)nc12 [Example 370]", "< 4.70"]
]}

Your task in this section: give pIC50 for each listed record.
1. FC1(F)CC1c1cnn2c(NCc3nc4ccccc4[nH]3)nc(N3CCOCC3)nc12 (centres unmarked) [Example 279]
2. Brc1cnn2c(NCc3nc4ccccc4[nH]3)nc(N3CC4CCC(C3)N4)nc12 [Example 232]
3. Cc1cc2nc(CNc3nc(N4CCOCC4)nc4c(C5CC5)cnn34)[nH]c2cc1C [Example 320]

Outgoing:
< 4.70
< 4.70
< 4.70

----------
I'd appreciate it if you could supply pIC50 values for the items below.
target of assay: CDK9/CycT1 (Homo sapiens, UniProt P50750)
Construct: Recombinant full-length His-tagged human CDK9 and CycT1; purchased Life Technologies PV4131; host or cells: insect cells
test: CDK9/CycT1 high ATP kinase assay (TR-FRET, 2 mM ATP)
Type: biochemical
condition summary: 2 mM ATP (high ATP); median; read-out: CDK9/CyclinT1, 2 mM ATP (high ATP), IC50 (median)
pIC50: −log10 of the molar value.

Reference set, count: 2
{"columns": ["query smiles", "pIC50"],
 "data": [
  ["CN1CCN(c2nc(NCc3nc4cc(Cl)ccc4[nH]3)n3ncc(C(F)(F)F)c3n2)CC1", "< 4.70"],
  ["C[C@@H]1CN(c2nc(NCc3nc4ccccc4[nH]3)n3ncc(C4CC4)c3n2)C[C@H](C)N1", "< 4.70"]
]}

Please look at the items below and tell me pIC50 for each one, in order.
1. CN(CC(C)(C)O)c1nc(NCc2nc3cc(OC(F)(F)F)ccc3[nH]2)n2ncc(Br)c2n1
2. Fc1c(Cl)ccc2[nH]c(CNc3nc(N4CC5CCC(C4)N5)nc4c(C5CC5)cnn34)nc12
3. CN1CCCN(c2nc(NCc3nc4ccccc4[nH]3)n3ncc(Br)c3n2)CC1
4. CN1CCC(Oc2nc(NCc3nc4ccccc4[nH]3)n3ncc(Br)c3n2)CC1
5. CN1CCN(c2nc(NCc3nc4c(OC(F)(F)F)cccc4[nH]3)n3ncc(Br)c3n2)CC1
6. CN(CC(C)(C)O)c1nc(NCc2nc3c(F)cccc3[nH]2)n2ncc(C3CC3)c2n1

Outgoing:
1. 4.90
2. 4.95
3. < 4.70
4. < 4.70
5. < 4.70
6. 5.03

----------
target of assay: CDK12 (nuclear staining in CAL-120 cells) (Homo sapiens)
Construct: endogenous in cells; host or cells: CAL-120 human breast cancer cells (DSMZ ACC 459)
Sequence (Q9NYV4 whole entry): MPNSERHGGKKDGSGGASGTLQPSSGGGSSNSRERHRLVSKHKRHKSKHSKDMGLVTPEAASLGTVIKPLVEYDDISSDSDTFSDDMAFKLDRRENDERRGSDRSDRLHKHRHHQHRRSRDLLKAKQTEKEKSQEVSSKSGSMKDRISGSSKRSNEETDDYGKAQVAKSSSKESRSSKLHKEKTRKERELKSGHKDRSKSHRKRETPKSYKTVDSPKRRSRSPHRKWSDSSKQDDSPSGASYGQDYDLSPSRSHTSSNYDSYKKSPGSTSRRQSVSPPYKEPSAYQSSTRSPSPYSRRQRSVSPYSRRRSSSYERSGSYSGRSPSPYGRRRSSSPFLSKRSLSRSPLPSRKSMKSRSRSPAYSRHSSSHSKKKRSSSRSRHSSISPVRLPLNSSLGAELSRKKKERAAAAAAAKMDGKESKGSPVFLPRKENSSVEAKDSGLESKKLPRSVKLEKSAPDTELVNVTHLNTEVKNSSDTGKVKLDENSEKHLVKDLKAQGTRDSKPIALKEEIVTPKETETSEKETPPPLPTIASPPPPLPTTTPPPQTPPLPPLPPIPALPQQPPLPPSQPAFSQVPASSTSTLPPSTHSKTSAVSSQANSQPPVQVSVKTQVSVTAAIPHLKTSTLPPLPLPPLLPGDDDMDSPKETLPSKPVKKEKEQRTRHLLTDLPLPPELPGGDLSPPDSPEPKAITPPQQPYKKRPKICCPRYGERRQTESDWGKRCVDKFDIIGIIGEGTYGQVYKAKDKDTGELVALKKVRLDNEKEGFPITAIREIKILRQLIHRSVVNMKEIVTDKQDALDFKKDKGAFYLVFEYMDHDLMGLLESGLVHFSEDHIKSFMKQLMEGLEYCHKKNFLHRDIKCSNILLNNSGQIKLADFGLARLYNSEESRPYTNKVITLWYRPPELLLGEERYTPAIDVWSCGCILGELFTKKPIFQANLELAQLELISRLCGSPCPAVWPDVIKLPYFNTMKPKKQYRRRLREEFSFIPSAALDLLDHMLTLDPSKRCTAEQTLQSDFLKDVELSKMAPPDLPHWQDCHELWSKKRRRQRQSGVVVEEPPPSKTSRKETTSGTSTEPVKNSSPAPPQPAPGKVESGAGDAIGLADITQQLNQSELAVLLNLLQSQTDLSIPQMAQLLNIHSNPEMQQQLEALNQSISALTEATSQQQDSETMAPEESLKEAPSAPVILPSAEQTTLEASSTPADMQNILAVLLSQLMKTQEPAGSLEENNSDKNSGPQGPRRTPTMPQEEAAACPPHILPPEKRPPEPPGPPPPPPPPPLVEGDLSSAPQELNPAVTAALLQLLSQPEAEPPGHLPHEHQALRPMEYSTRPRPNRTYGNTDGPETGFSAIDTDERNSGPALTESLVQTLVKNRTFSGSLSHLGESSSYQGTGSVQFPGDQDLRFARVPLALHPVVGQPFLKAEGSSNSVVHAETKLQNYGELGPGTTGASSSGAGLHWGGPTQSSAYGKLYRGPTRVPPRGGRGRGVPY
Sequence (O75909 whole entry partner): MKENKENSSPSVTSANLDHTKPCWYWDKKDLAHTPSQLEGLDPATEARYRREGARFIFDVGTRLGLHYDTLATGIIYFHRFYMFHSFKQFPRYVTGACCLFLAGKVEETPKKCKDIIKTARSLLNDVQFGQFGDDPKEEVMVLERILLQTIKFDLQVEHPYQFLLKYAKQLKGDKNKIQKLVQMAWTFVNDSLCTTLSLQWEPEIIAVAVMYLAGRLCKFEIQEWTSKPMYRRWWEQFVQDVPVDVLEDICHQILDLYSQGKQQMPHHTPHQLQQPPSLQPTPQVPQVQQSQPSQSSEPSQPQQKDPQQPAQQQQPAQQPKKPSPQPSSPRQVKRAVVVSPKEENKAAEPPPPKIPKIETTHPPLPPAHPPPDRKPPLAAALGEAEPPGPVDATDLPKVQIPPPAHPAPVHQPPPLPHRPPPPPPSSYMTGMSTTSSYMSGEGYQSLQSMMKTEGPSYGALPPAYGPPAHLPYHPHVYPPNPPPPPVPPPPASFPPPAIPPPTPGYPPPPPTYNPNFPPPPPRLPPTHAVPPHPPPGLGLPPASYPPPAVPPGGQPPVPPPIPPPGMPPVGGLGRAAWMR
test: CDK12 nuclear protein level: immunofluorescence/high content analysis (CAL-120)
Assay type: cell-based
condition summary: CAL-120 cells, 24 h, immunofluorescence; 50% reduction of nuclear CDK12 staining intensity; median; read-out: CDK12 degradation IF, DC50- [mol/l] (median)
result type: DC50

Field: example entries. Status: answers known.
{"columns": ["query smiles", "recorded value"],
 "data": [
  ["C[C@@H]1CN(c2nc(NCc3nnc(-c4ccccc4)[nH]3)n3ncc(Br)c3n2)C[C@H](C)N1C", "6.3 nM"],
  ["N#Cc1cccc(-c2nnc(CNc3nc(N4CCOCC4)nc4c(Br)cnn34)[nH]2)c1", "3.43 nM"],
  ["COc1ccc2[nH]c(CNc3nc(N4CCN(C)CC4)nc4c(Br)cnn34)nc2c1", "0.856 nM"],
  ["Fc1cccc(-c2nnc(CNc3nc(N4C[C@H]5C[C@@H]4CO5)nc4c(Br)cnn34)[nH]2)c1", "2.58 nM"],
  ["COc1ccccc1-c1cnc(CNc2nc(N3CCOCC3)nc3c(Br)cnn23)[nH]1", "2.16 nM"]
]}

Record DC50 per entry; entries follow.
1. Cc1cc2nc(CNc3nc(N(C)CC(C)(C)O)nc4c(C5CC5)cnn34)[nH]c2cc1C
2. CN1C[C@@H]2C[C@H]1CN2c1nc(NCc2nc3ccccc3[nH]2)n2ncc(Br)c2n1
3. Brc1cnn2c(NCc3nnc(-c4cccnc4)[nH]3)nc(N3CCOCC3)nc12

Outgoing:
6.23 nM
16.2 nM
47.2 nM
